Molecular target: CYP2D6 (Homo sapiens (Human), UniProt P10635)
Sequence (P10635 whole entry): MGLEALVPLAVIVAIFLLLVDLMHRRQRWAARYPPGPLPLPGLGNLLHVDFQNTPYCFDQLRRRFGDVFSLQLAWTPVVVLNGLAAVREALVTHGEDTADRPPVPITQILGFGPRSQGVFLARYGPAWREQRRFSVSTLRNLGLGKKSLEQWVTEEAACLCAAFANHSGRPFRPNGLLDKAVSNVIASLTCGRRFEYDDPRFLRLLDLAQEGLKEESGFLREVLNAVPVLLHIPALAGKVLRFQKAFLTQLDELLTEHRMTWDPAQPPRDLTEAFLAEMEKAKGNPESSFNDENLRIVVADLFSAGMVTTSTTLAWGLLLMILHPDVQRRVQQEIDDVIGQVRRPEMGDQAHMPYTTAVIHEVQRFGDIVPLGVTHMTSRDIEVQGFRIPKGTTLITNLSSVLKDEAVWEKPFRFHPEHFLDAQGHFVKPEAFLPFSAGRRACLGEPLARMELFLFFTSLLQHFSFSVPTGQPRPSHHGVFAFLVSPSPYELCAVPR
Experiment: CYP Inhibition Assay, CYP2D6
Format: in vitro ADME
Settings: human liver microsomes, co-incubation; read-out: CYP 2D6 IC50 co
Please respond with reported IC50 for every item in the list.

The molecule listed as CCc1nc(N2C[C@H]3C(=O)N(C)C(=N)N[C@@]3(c3ccc(F)cc3)C2)nc(OC)c1F has a reported IC50 of > 30 µM

The molecule listed as CCOc1nc(N2C[C@H]3C(=O)N(C)C(=N)N[C@@]3(c3ccccc3)C2)nc(OC)c1F (racemic) [24 racemic] has a reported IC50 of 22.6 µM

The molecule listed as COc1nc(N2C[C@H]3C(=O)N(C)C(=N)N[C@@]3(c3ccc(F)c(Cl)c3F)C2)nc(C)c1F (racemic) [39 racemic] has a reported IC50 of > 20 µM

The molecule listed as COc1nc(N2C[C@H]3C(=O)N(C)C(=N)N[C@@]3(c3ccc(F)cc3F)C2)nc(CO)c1F has a reported IC50 of > 20 µM

The molecule listed as COc1nc(N2C[C@H]3C(=O)N(C)C(=N)N[C@@]3(c3cc(F)ccc3F)C2)nc(C2CC2)c1F has a reported IC50 of > 20 µM

The molecule listed as COc1nc(N2C[C@H]3C(=O)N(C)C(N)=N[C@@]3(c3c(F)ccc(F)c3F)C2)nc(C)c1F has a reported IC50 of > 20 µM

====

Please respond with reported pIC50 for every item in the list.
Molecular target: UniProtKB P10635
Experiment: CYP Inhibition Assay, CYP2D6
Type: in vitro ADME
Conditions: human liver microsomes, 30 min pre-incubation with NADPH; read-out: CYP 2D6 IC50 pre
pIC50: −log10 of the molar value.

The compound listed as COc1nc(N2C[C@H]3C(=O)N(C)C(=N)N[C@@]3(c3ccc(F)cc3F)C2)nc(C2CC2)c1Cl [Example 19] has a reported pIC50 of < 4.70

The compound listed as Cc1nc(N2C[C@H]3C(=O)N(C)C(=N)N[C@@]3(c3ccc(F)cc3)C2)nc(C)c1F [Example 28] has a reported pIC50 of ~4.52

The compound listed as Cc1nc(N2C[C@H]3C(=O)N(C)C(=N)N[C@@]3(c3cc(F)ccc3F)C2)nc(C2CC2)c1F [Example 37] has a reported pIC50 of < 4.70

The compound listed as COc1nc(N2C[C@H]3C(=O)N(C)C(=N)N[C@@]3(c3ccc(F)cc3)C2)nc(C2CC2)c1F [Example 21] has a reported pIC50 of 5.00

The compound listed as CCc1nc(N2C[C@H]3C(=O)N(C)C(=N)N[C@@]3(c3ccc(F)cc3F)C2)nc(OC)c1F [Example 32] has a reported pIC50 of < 4.70

The compound listed as COc1nc(N2C[C@H]3C(=O)N(C)C(=N)N[C@@]3(c3cc(F)ccc3F)C2)nc(C2CC2)c1F [Example 34] has a reported pIC50 of < 4.70
